All figures here come from ChEMBL document CHEMBL4196014.

# System: Human alphaherpesvirus 1
# ASSAY SUMMARY: Antiviral activity against Human simplex virus 1 KOS infected in HEL cells assessed as reduction in viral cytopathic effect
# Format: functional, organism-based
# MEASUREMENT CONDITIONS: Human alphaherpesvirus 1, KOS
METRIC: pEC50
Give bare numbers, as −log10 of the molar value.

The following compounds have reported results that may help.
[
  {
    "COMPOUND": "Cc1cn(C/C=C/CP(=O)(OCOC(=O)C(C)C)OCOC(=O)C(C)C)c(=O)[nH]c1=O",
    "OBSERVED": 5.38
  },
  {
    "COMPOUND": "Cc1cn(C/C=C/C[P@](=O)(N[C@@H](C)C(=O)OCc2ccccc2)Oc2ccccc2)c(=O)[nH]c1=O",
    "OBSERVED": 5.02
  },
  {
    "COMPOUND": "O=c1[nH]c(=O)n([C@H]2C[C@H](O)[C@@H](CO)O2)cc1/C=C/Br",
    "OBSERVED": 7.09
  },
  {
    "COMPOUND": "C[C@H](NP(=O)(C/C=C/Cn1cc(Cl)c(=O)[nH]c1=O)Oc1ccccc1)C(=O)OCc1ccccc1 (stereo partly drawn)",
    "OBSERVED": 4.37
  },
  {
    "COMPOUND": "Nc1nc2c(ncn2COCCO)c(=O)[nH]1",
    "OBSERVED": 5.92
  },
  {
    "COMPOUND": "COC(=O)[C@H](C)NP(=O)(C/C=C/Cn1cc(C)c(=O)[nH]c1=O)Oc1ccccc1 (stereo partly drawn)",
    "OBSERVED": 4.23
  }
]

Attention now shifts to the item below.
Asked: Look up pEC50 for this compound: Nc1ccn(C[C@@H](CO)OCP(=O)(O)O)c(=O)n1
Given back: 5.19

---

# Test system: Human betaherpesvirus 5
# ASSAY SUMMARY: Antiviral activity against Human cytomegalovirus AD169 infected in HEL cells assessed as reduction in viral cytopathic effect
# Format: functional, organism-based
# MEASUREMENT CONDITIONS: Human betaherpesvirus 5, AD169, HEL
Can you tell me EC50 for the items I'm about to list?
Answers are plain numbers, in µM.

The following compounds have reported results that may help.
[
  {
    "COMPOUND": "Nc1nc(O)c2ncn(COC(CO)CO)c2n1",
    "EC50 (µM)": 5.63
  },
  {
    "COMPOUND": "Cc1cn(C/C=C/CP(=O)(N[C@@H](C)C(=O)OC(C)C)Oc2ccccc2)c(=O)[nH]c1=O (stereo partly drawn)",
    "EC50 (µM)": 25.9
  },
  {
    "COMPOUND": "Cc1cn(C/C=C/CP(=O)(OCOC(=O)C(C)C)OCOC(=O)C(C)C)c(=O)[nH]c1=O",
    "EC50 (µM)": 102
  }
]

Asked: Look up EC50 for this compound: Cc1cn(C/C=C/C[P@@](=O)(N[C@@H](C)C(=O)OCc2ccccc2)Oc2ccccc2)c(=O)[nH]c1=O
Given back: 34.2

---

# Tested on: HEL
# ASSAY SUMMARY: Cytostatic activity against HEL cells after 3 days by Coulter counting method
# Assay type: cell-based
# MEASUREMENT CONDITIONS: human, 72 h
Can you tell me CC50 for the items I'm about to list?
Answers are plain numbers, in µM.

The following compounds have reported results that may help.
[
  {
    "COMPOUND": "CCCCCCCCCCCCCCCOCCCOP(=O)(O)C/C=C/Cn1cc(C)c(=O)[nH]c1=O",
    "CC50, µM": 76
  },
  {
    "COMPOUND": "CCCCCCCCCCCCCCCOCCCOP(=O)(C/C=C/Cn1cc(C)c(=O)[nH]c1=O)OCOC(=O)OC(C)C (centres undefined)",
    "CC50, µM": 14.7
  },
  {
    "COMPOUND": "Cc1cn(C/C=C/CP(=O)(OCOC(=O)C(C)C)OCOC(=O)C(C)C)c(=O)[nH]c1=O",
    "CC50, µM": 36
  }
]

Asked: Look up CC50 for this compound: Cc1cn(C/C=C/CP(=O)(OCOC(=O)C(C)(C)C)OCOC(=O)C(C)(C)C)c(=O)[nH]c1=O
Given back: 36.4

---

# Tested on: Human alphaherpesvirus 3
# ASSAY SUMMARY: Antiviral activity against thymidine kinase deficient Varicella zoster virus 07/1 infected in HEL cells assessed as reduction in viral plaque formation
# Assay type: functional, organism-based
# MEASUREMENT CONDITIONS: Human alphaherpesvirus 3, 07/1, HEL
Can you tell me EC50 for the items I'm about to list?
Answers are plain numbers, in nM.

[
  {
    "COMPOUND": "COC(=O)[C@H](C)NP(=O)(C/C=C/Cn1cc(C)c(=O)[nH]c1=O)Oc1ccccc1 (stereo partly drawn)",
    "EC50, nM": 1820
  }
]

Attention now shifts to the item below.
Asked: Look up EC50 for this compound: Cc1cn(C/C=C/C[P@@](=O)(N[C@@H](C)C(=O)OCc2ccccc2)Oc2ccccc2)c(=O)[nH]c1=O
Given back: 390

---

# Tested on: Human alphaherpesvirus 1
# ASSAY SUMMARY: Antiviral activity against thymidine kinase deficient acyclovir-resistant Human simplex virus 1 KOS infected in HEL cells assessed as reduction in viral cytopathic effect
# Format: functional, organism-based
# MEASUREMENT CONDITIONS: Human alphaherpesvirus 1, KOS
METRIC: EC50 (µM)
Give bare numbers, in µM.

[
  {
    "COMPOUND": "O=c1[nH]c(=O)n([C@H]2C[C@H](O)[C@@H](CO)O2)cc1/C=C/Br [BRIVUDINE]",
    "ASSAY SYSTEM": "Human alphaherpesvirus 1",
    "EC50 (µM)": 420
  },
  {
    "COMPOUND": "C[C@H](NP(=O)(C/C=C/Cn1cc(F)c(=O)[nH]c1=O)Oc1ccccc1)C(=O)OCc1ccccc1 (stereo partly drawn)",
    "ASSAY SYSTEM": "Human alphaherpesvirus 1",
    "EC50 (µM)": 79
  },
  {
    "COMPOUND": "Cc1cn(C/C=C/C[P@](=O)(N[C@@H](C)C(=O)OCc2ccccc2)Oc2ccccc2)c(=O)[nH]c1=O",
    "ASSAY SYSTEM": "Human alphaherpesvirus 1",
    "EC50 (µM)": 3.2
  },
  {
    "COMPOUND": "COC(=O)[C@H](C)NP(=O)(C/C=C/Cn1cc(C)c(=O)[nH]c1=O)Oc1ccccc1 (stereo partly drawn)",
    "ASSAY SYSTEM": "Human alphaherpesvirus 1",
    "EC50 (µM)": 23.5
  },
  {
    "COMPOUND": "Cc1cn(C/C=C/C[P@@](=O)(N[C@@H](C)C(=O)OCc2ccccc2)Oc2ccccc2)c(=O)[nH]c1=O",
    "ASSAY SYSTEM": "Human alphaherpesvirus 1",
    "EC50 (µM)": 4.1
  }
]

Attention now shifts to the item below.
Asked: State its EC50 on Human alphaherpesvirus 1: C[C@H](NP(=O)(C/C=C/Cn1cc(Cl)c(=O)[nH]c1=O)Oc1ccccc1)C(=O)OCc1ccccc1 (stereo partly drawn)
Given back: 24

---

# ASSAY SUMMARY: Selectivity index, ratio of CC50 for HEL cells to EC50 for Varicella zoster virus Oka infected in HEL cells
# Type: toxicity, cell-based
# MEASUREMENT CONDITIONS: human, read-out: Ratio CC50/EC50
METRIC: selectivity ratio
Numbers only.

The following compounds have reported results that may help.
[
  {
    "SMILES STRUCTURE": "Cc1cn(C/C=C/CP(=O)(OCOC(=O)C(C)(C)C)OCOC(=O)C(C)(C)C)c(=O)[nH]c1=O",
    "OBSERVED": 19
  },
  {
    "SMILES STRUCTURE": "Cc1cn(C/C=C/C[P@@](=O)(N[C@@H](C)C(=O)OCc2ccccc2)Oc2ccccc2)c(=O)[nH]c1=O",
    "OBSERVED": 93
  }
]

Attention now shifts to the item below.
Asked: Look up selectivity ratio for this compound: Cc1cn(C/C=C/CP(=O)(OCOC(=O)C(C)C)OCOC(=O)C(C)C)c(=O)[nH]c1=O
Given back: 29

---

# Tested on: Human alphaherpesvirus 1
# ASSAY SUMMARY: Antiviral activity against Human simplex virus 1 KOS infected in HEL cells assessed as reduction in viral cytopathic effect
# Format: functional, organism-based
# MEASUREMENT CONDITIONS: Human alphaherpesvirus 1, KOS
METRIC: EC50

[
  {
    "COMPOUND": "CCCCCCCCCCCCCCCOCCCOP(=O)(O)C/C=C/Cn1cc(C)c(=O)[nH]c1=O",
    "EC50": "> 37 µM"
  }
]

// batch mode: one EC50 value per listed entry
1. Cc1cn(C/C=C/C[P@@](=O)(N[C@@H](C)C(=O)OCc2ccccc2)Oc2ccccc2)c(=O)[nH]c1=O
2. CCCCCCCCCCCCCCCOCCCOP(=O)(C/C=C/Cn1cc(C)c(=O)[nH]c1=O)OCOC(=O)OC(C)C (centres undefined)
3. Cc1cn(C/C=C/CP(=O)(N[C@@H](C)C(=O)OC(C)C)Oc2ccccc2)c(=O)[nH]c1=O (some centres undefined)

Given back:
1: 11.5 µM; 2: > 152 µM; 3: > 100 µM
